Listed here: compounds with reported IC50 for p45MEK (GST-MEK) (Homo sapiens, UniProt Q02750).
Where a name gives a salt, the structure may show the parent alone.
Write the number in nM without appending the unit.

The examples below pair each entry with its known result.
CC(C#Cc1ccccc1)=CCONC(=O)c1ccc(F)c(F)c1Nc1ccc(Br)cc1C :: 147
Cc1cc(F)ccc1Nc1cc(F)ccc1C(=O)NO :: 7130

Assay p45MEK (GST-MEK) (Homo sapiens, UniProt Q02750), sample `Cc1cc(I)ccc1Nc1ccc(Cl)cc1C(=O)N(C)O` , IC50 read: 566

Assay p45MEK (GST-MEK) (Homo sapiens, UniProt Q02750), sample `Cc1cc(I)ccc1Nc1c(C(=O)NOC2CCCC2)ccc(F)c1F` , IC50 read: 140

Assay p45MEK (GST-MEK) (Homo sapiens, UniProt Q02750), sample CN(C)CCONC(=O)c1cc(Br)c(F)c(F)c1Nc1ccc(I)cc1Cl [Example 91, monohydrochloride salt] , IC50 read: 20
